experiment: in vitro; details: dog, CC50 (H3N2/MDCK)
Binary call on CC50 with cut-off 100 µM: strictly below means YES, and equality or higher means NO.

>  <compound>
NCCN=C(NCCN)NCCNC(=O)C(Cc1c[nH]c2ccccc12)NC(=O)c1cc(Br)ccc1NC(=O)c1ccc2ccccc2c1 (stereo not shown) [compound 1083]

>  <cat>
NO

$$$$
>  <compound>
NCCNC(=O)C(Cc1c[nH]c2ccccc12)NC(=O)c1cc(-c2ccccc2-c2ccccc2)ccc1N (stereo not shown) [Sau-22]

>  <cat>
YES

$$$$
>  <compound>
NCCNC(=O)C(Cc1c[nH]c2ccccc12)NC(=O)c1cc(-c2ccc3ccccc3c2)ccc1N (stereo not shown) [compound 610]

>  <cat>
YES

$$$$
>  <compound>
NCCNC(=Nc1ccccc1)NCCNC(=O)C(Cc1c[nH]c2ccccc12)NC(=O)c1cc(Br)ccc1NC(=O)c1ccc2ccccc2c1 (stereo not shown) [compound 758]

>  <cat>
NO

$$$$
>  <compound>
NCCNC(=Nc1ccccc1)NCCNC(=O)C(Cc1ccccc1)NC(=O)c1cc(Br)ccc1NC(=O)c1ccc2ccccc2c1 (stereo not shown) [compound 1096]

>  <cat>
YES

$$$$
>  <compound>
N=C(N)NCCNC(=O)C(Cc1ccccc1)NC(=O)c1cc(Br)ccc1NC(=O)c1ccc2ccccc2c1 (stereo not shown) [compound 1091]

>  <cat>
NO

$$$$

Now take the following compound into account.
Field: below-cutoff. Rule: recorded CC50 strictly less than 100 µM. Subject: NCCCCC(N)C(=O)NCCNC(=O)C(Cc1c[nH]c2ccccc12)NC(=O)c1cc(Br)ccc1NC(=O)c1ccc2ccccc2c1 (stereo not shown) [NAPL] NO

====

tested on: Influenza A Virus (H1N1); conditions: MDCK
Exam item: assign yes to entries whose SI Influenza A Virus (H1N1)/MDCK is below 10 and no to entries at or above 10. Note that a value of exactly 10 receives no.

>  <molecule>
NCCNC(=Nc1ccccc1)NCCNC(=O)C(Cc1c[nH]c2ccccc12)NC(=O)c1cc(Br)ccc1NC(=O)c1ccc2ccccc2c1 (centres unmarked)

>  <cat>
no

$$$$
>  <molecule>
NCCNC(=O)C(Cc1c[nH]c2ccccc12)NC(=O)c1cc(-c2ccc3ccccc3c2)ccc1N (centres unmarked)

>  <cat>
no

$$$$
>  <molecule>
NCCCCC(N)C(=O)NCCNC(=O)C(Cc1c[nH]c2ccccc12)NC(=O)c1cc(Br)ccc1NC(=O)c1ccc(-c2ccccc2)cc1 (centres unmarked)

>  <cat>
yes

$$$$
>  <molecule>
NCCCCC(N)C(=O)NCCNC(=O)C(Cc1c[nH]c2ccccc12)NC(=O)c1cc(Br)ccc1NC(=O)c1ccc2ccccc2c1 (centres unmarked)

>  <cat>
no

$$$$

Is 10 strictly greater than the molecule's reported SI Influenza A Virus (H1N1)/MDCK? molecule: NCCNC(=Nc1ccccc1)NCCNC(=O)C(Cc1ccccc1)NC(=O)c1cc(Br)ccc1NC(=O)c1ccc2ccccc2c1 (centres unmarked) yes

Find out if reported SI Influenza A Virus (H1N1)/MDCK for NCCN=C(NCCN)NCCNC(=O)C(Cc1c[nH]c2ccccc12)NC(=O)c1cc(Br)ccc1NC(=O)c1ccc2ccccc2c1 (centres unmarked) is less than 10 yes

For N=C(N)NCCNC(=O)C(Cc1ccccc1)NC(=O)c1cc(Br)ccc1NC(=O)c1ccc2ccccc2c1 (centres unmarked) , is the recorded SI Influenza A Virus (H1N1)/MDCK below the cut-off of 10? yes

Dear colleague, could you confirm whether SI Influenza A Virus (H1N1)/MDCK of NCCNC(=O)C(Cc1c[nH]c2ccccc12)NC(=O)c1cc(-c2ccccc2-c2ccccc2)ccc1N (centres unmarked) falls below 10? Thanks. no

====

experiment: in vitro; settings: African green monkey
Peptide text beside a SMILES is read from it.
reportedProperty: CC50 at 24 h (µM)
One number for each entry, in µM.

Return reported CC50 at 24 h; argument: N=C(N)NCCC[C@H](NC(=O)[C@H](CCCNC(=N)N)NC(=O)[C@H](CCCNC(=N)N)NC(=O)[C@H](CCCNC(=N)N)NC(=O)CNC(=O)CNC(=O)[C@H](CCCNC(=N)N)NC(=O)[C@H](CCCNC(=N)N)NC(=O)[C@H](CCCNC(=N)N)NC(=O)[C@H](CCCNC(=N)N)NC(=O)[C@H](CCCNC(=N)N)NC(=O)[C@H](CCCNC(=N)N)NC(=O)[C@H](CCCCN)NC(=O)[C@H](CCCNC(=N)N)NC(=O)[C@H](CCCCN)NC(=O)[C@H](CC(N)=O)NC(=O)[C@@H](N)CCCCN)C(=O)O [Mel4] (H-KNKRKRRRRRRGGRRRR-OH) 47.6
